Cited source: patent US10428018B2

Recorded IC50 values for a group of molecules are listed next.
Test target: RORγ (Homo sapiens)
Construct: expressed in transfected cells; host or cells: 293FT cells (Invitrogen), expression vector pFN26A (Promega)
Sequence (P51449 269-508 limits assumed): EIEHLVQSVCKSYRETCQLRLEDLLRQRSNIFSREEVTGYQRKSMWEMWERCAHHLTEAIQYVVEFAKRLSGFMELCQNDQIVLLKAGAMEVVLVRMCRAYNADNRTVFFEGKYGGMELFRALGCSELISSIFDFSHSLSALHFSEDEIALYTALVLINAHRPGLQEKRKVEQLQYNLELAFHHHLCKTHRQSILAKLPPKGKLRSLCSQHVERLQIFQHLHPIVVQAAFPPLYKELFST
Test description: RORγ GAL4 reporter gene assay (luciferase readout, 293FT cells)
Assay type: cell-based
Run parameters: inhibition of RORγ (GAL4-RORγ-LBD) luciferase signal in transfected 293FT cells, overnight incubation; read-out: mean pIC50 (converted)

Sample records with IC50:
Molecule	IC50
CCS(=O)(=O)c1ccc(CC(=O)Nc2ccc(C(=O)N3CCCCC3c3ccccc3)cc2)cc1 (centres unmarked) [Example 33]	≤ 100 nM
CCN(C(=O)c1ccc(NC(=O)Cc2ccc(S(=O)(=O)CC)nc2)cc1F)c1ccccc1 [Example 43]	≤ 1000 nM
CCS(=O)(=O)c1ccc(CC(=O)Nc2ccc(C(=O)N(C)Cc3ccccc3)cc2)cc1 [Example 26]	≤ 1000 nM
CCS(=O)(=O)c1ccc(CC(=O)Nc2ccc(C(=O)N(C)c3cc(C)on3)cc2)cc1 [Example 1]	≤ 1000 nM
CCS(=O)(=O)c1ccc(CC(=O)Nc2ccc(C(=O)N(c3ccccn3)C3CC3)cc2)cc1 [Example 40]	≤ 1000 nM
CCS(=O)(=O)c1ccc(CC(=O)Nc2ccc(C(=O)N(C)c3ccccn3)cc2)cc1 [Example 23]	≤ 1000 nM
CCS(=O)(=O)c1ccc(CC(=O)Nc2ccc(C(=O)N(c3ccccc3)C(C)(C)C)cc2)cn1 [Example 44]	≤ 100 nM

Now take the following molecule into account.
What does the data say about its IC50? Entry: CCS(=O)(=O)c1ccc(CC(=O)Nc2ccc(C(=O)N3CCCc4ccccc43)cc2)cc1 [Example 28]
≤ 100 nM
